- tested_system: UniProtKB P02769
- Sequence (P02769 whole entry): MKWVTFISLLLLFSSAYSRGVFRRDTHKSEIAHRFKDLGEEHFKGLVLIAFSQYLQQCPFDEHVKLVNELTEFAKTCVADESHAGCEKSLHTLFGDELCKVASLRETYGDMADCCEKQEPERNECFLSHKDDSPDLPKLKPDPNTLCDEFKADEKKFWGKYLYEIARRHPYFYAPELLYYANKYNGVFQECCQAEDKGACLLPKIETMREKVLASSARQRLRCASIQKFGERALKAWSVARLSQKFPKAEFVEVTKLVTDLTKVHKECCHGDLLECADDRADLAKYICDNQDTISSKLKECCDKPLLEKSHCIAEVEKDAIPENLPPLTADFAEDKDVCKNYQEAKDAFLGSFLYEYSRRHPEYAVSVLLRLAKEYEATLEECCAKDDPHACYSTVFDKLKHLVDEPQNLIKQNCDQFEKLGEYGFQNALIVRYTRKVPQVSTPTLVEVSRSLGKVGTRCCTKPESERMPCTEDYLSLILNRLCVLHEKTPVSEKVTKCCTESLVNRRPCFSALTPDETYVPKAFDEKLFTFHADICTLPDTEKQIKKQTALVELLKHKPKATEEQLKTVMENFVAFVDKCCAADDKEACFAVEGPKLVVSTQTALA
- test_protocol: Counterscreen for inhibitors of T-cell receptor (TCR)-CD3 interaction: Fluorescence-based biochemical high throughput dose response assay to identify inhibitors of T-cell receptor (TCR)-CD3 interaction using a TAMRA-labeled BSA probe.
- Assay type: functional
Active and inactive are the calls of the source. The rule behind the calls is not given here.
parameter: IC50

[[record]]
structure_string = "O=C(O)c1cnc2c([N+](=O)[O-])cccc2c1O"
tested_system = "UniProtKB P02769"
parameter = "IC50"
observed_measurement = "> 94 µM (inactive)"

[[record]]
structure_string = "N#C/C(=C\\c1ccc(O)c(O)c1)C(=O)Nc1cccc2ncccc12"
tested_system = "UniProtKB P02769"
parameter = "IC50"
observed_measurement = "> 94 µM (inactive)"

[[record]]
structure_string = "O=c1c(CO)cc(CO)cc(CO)c1O"
tested_system = "UniProtKB P02769"
parameter = "IC50"
observed_measurement = "> 94 µM (inactive)"


Consider the record given below.
Task item: What value of measured IC50 is listed for "CCn1c(C)nc2cc(C(=O)NNC(=S)NC(=O)c3ccccc3)ccc21" ?
Reply: > 94.1 µM (inactive)
